Measurement Description: P-glycoprotein substrates identified in KB-3-1 adenocarcinoma cell line, qHTS therapeutic library screen (AID 1346986); note: nearly all actives have a fitted effect of over 60% in size
Conditions Used: KB-3-1 parental cells viability, CellTiter-Glo, 72 h; series mostly up to 44.5 µM
Records with an inconclusive call do not appear. Calls of active or inactive are those of the source. Calls come from the whole dose curve; as a rule, active = well fitted inhibition curve with a large enough effect; inconclusive = small, poorly fitted or top-dose-only effect; inactive = no such curve, though single readings can be large or run the other way.
Metric Name: outcome

Answered examples (5):
COc1c(OC2OC(CO)C(O)C(O)C2O)ccc(O)c1C(=O)OCc1ccccc1O[C@@H]1O[C@H](CO)[C@@H](O)[C@H](O)[C@H]1O (stereo partly drawn)	inactive
COC(=O)C1=COC(OC2OC(CO)C(O)C(O)C2O)C2C1CC(OC(=O)C(O)CC(=O)O)C2C (stereo not drawn)	inactive
CC1=CC(=O)CC(C)(C)C1(O)CCC(C)O (stereo not drawn)	inactive
C[C@H]1C[C@H]2[C@@H]3CCC4=CC(=O)C=C[C@]4(C)[C@@]3(F)[C@@H](O)C[C@]2(C)[C@@]1(O)C(=O)COP(=O)(O)O	inactive
C[C@@H]1CC[C@]2(C(=O)O)CC[C@]3(C(=O)O)C(=CCC4[C@@]5(C)CC[C@H](O[C@@H]6O[C@@H](C)[C@H](O[C@@H]7O[C@H](CO)[C@@H](O)[C@H](O)[C@H]7O)[C@@H](O)[C@H]6O)C(C)(C)C5CC[C@]43C)C2[C@H]1C (stereo partly drawn)	inactive

Look up outcome for this molecule: `NC(=O)c1cccc(-c2cc(O)cc(OC(=O)NC3CCCCC3)c2)c1`
inactive

Look up outcome for this molecule: `C=Cc1cc(O)cc2nc(-c3ccc(O)c(F)c3)oc12`
inactive

Look up outcome for this molecule: CC1=C2C=C(CO)C(CO)CCC2(C)CCC1=O (stereo not drawn)
inactive

* * *

Tested On: Cytochrome P450 2D6 (Homo sapiens) (UniProt P10635)
Sequence (P10635 whole entry, looked up): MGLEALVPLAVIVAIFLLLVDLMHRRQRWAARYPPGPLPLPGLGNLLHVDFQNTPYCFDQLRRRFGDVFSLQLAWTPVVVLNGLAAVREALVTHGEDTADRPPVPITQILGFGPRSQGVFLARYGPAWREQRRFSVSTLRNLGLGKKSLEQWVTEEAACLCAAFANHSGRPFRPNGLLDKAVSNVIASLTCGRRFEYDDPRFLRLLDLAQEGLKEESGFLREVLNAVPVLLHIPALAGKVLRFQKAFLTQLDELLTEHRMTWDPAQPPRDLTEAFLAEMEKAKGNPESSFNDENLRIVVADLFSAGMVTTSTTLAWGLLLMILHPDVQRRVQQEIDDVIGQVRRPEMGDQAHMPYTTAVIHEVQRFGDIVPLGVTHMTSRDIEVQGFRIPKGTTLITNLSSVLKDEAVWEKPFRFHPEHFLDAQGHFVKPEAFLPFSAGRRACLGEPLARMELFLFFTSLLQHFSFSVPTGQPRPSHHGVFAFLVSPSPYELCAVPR
Measurement Description: Cytochrome P450 family 2 subfamily D member 6 (CYP2D6) small molecule antagonists: luciferase biochemical (cell-free) qHTS assay (AID 1645840); note: nearly all actives have a fitted effect of over 55% in size
Conditions Used: P450-Glo CYP2D6 enzyme, luciferin luminescence, 1 h; series mostly up to 57.4 µM
Inconclusive results are not listed. Calls of active or inactive are those of the source. Calls follow the shape of the dose curve; as a rule, active = well fitted inhibition curve with a large enough effect in the repeat runs; inconclusive = weak or mixed curves; inactive = flat fitted curve, though single readings scatter.
Your answer must be one of the following: active, inactive

Please let me know the test result on file for `CO[C@@H]1COCC[C@@H]1N[C@@H]1CC[C@@](C(=O)N2CCc3ncc(C(F)(F)F)cc3C2)(C(C)C)C1` .
active

Please let me know the test result on file for `CCOC(=O)[C@H](CCc1ccccc1)CC1(C(=O)N[C@H]2CCc3ccccc3N(CC(=O)O)C2=O)CCCC1` .
inactive

Please let me know the test result on file for CC(C)N(C[C@H]1O[C@@H](n2cnc3c(N)ncnc32)[C@H](O)[C@@H]1O)C1CC(CCc2nc3ccc(C(C)(C)C)cc3[nH]2)C1 (stereo partly drawn) .
active

Please let me know the test result on file for `COc1cccc2c1CCC[C@H]2CN(C)CCc1ccc2ccoc2c1` .
active

Please let me know the test result on file for `C[C@H](CCC(=O)O)[C@H]1CC[C@H]2[C@@H]3[C@H](O)C[C@@H]4C[C@H](O)CC[C@]4(C)[C@H]3CC[C@]12C` .
inactive

Please let me know the test result on file for `Cc1cc(Nc2ncc(Cl)c(Nc3ccccc3S(=O)(=O)C(C)C)n2)c(OC(C)C)cc1C1CCNCC1` .
active

Please let me know the test result on file for `CC1(C)C(=O)C(C)(C)c2cc(C(=O)Nc3ccc(C(=O)O)cc3)ccc21` .
inactive

Please let me know the test result on file for `O=C(Nc1ccc(Br)cc1)c1cc(Br)c(Br)s1` .
active

* * *

System: Zika virus NS2B-NS3 protease (linked)
Measurement Description: 384 well plate NINDS AMC confirmatory qHTS for Zika virus inhibitors (AID 1347163); note: nearly all actives have a fitted effect of over 50% in size
Conditions Used: Recombinant NS2B-NS3 protease, Ac-VKTGKR-AMC fluorescence; series mostly up to 100 µM
Records with an inconclusive call do not appear. The source made the active and inactive calls. The call rests on the fitted dose curve; in most records, active means well fitted inhibition curve with a large enough effect; inconclusive means small, poorly fitted or top-dose-only effect; inactive means no such curve, though single readings can be large or run the other way.
Your answer must be one of the following: True (active), False (inactive)

Please let me know the test result on file for `O=C(O)c1ccc(CCCc2ccc(OCCc3ccc(F)cc3)cc2)o1` .
True

Please let me know the test result on file for `CC(C)C(=O)c1cn(CC(=O)COc2ccc(Oc3ccccc3)cc2)c2ccc(C(=O)O)cc12` .
True

Please let me know the test result on file for `O=S(=O)(O)c1cc(O)c2c(N=Nc3ccc(Nc4ccccc4)c4c(S(=O)(=O)O)cccc34)cc(S(=O)(=O)O)cc2c1` .
True

Please let me know the test result on file for N#CC1C(=O)Nc2scc(-c3ccc(-c4ccccc4O)cc3)c2C1=O (stereo not given) .
True

Please let me know the test result on file for `CCOc1c2c(c(OCC)c3ccccc13)C(=O)N(c1ccc(CC(=O)NS(=O)(=O)c3ccccc3)cc1)C2` .
False

* * *

Measurement Description: Drug repurposing screens with cells derived from glioblastoma tumor samples (AID 1345199); note: % is set by controls: 0 for no effect and ±100 for the full control effect; nearly all actives have a fitted effect of over 40% in size
Conditions Used: GBM patient neurospheres viability, ATP luminescence, 48 h; at 45.9 µM (top of the series); tumour line D
Inconclusive results are not listed. Activity calls are given as the source filed them. Calls come from the whole dose curve; as a rule, active = well fitted inhibition curve with a large enough effect; inconclusive = small, poorly fitted or top-dose-only effect; inactive = flat fitted curve, though single readings scatter.
Metric Name: activity, negative = cell killing

Look up activity, negative = cell killing for this compound: `C[C@]12CCC(=O)C=C1CC[C@@H]1[C@@H]2[C@@H](O)C[C@@]2(C)[C@H]1CC[C@]2(O)C(=O)COP(=O)(O)O`
-20.1% (inactive)

Look up activity, negative = cell killing for this compound: CCCCC(C)(O)C/C=C/[C@H]1[C@H](O)CC(=O)[C@@H]1CCCCCCC(=O)OC (stereo partly specified)
-0.625% (inactive)

Look up activity, negative = cell killing for this compound: CC(O)CO (stereo unspecified)
10.5% (inactive)

Look up activity, negative = cell killing for this compound: `CC1=C(/C=C/C(C)=C/C=C/C(C)=C/C=C/C=C(C)/C=C/C=C(C)/C=C/C2=C(C)CCCC2(C)C)C(C)(C)CCC1`
-14.5% (inactive)

Look up activity, negative = cell killing for this compound: `O=S(=O)(O)O`
-20.1% (inactive)

Look up activity, negative = cell killing for this compound: `Nc1nc(N)c2nc(CNc3ccc(C(=O)N[C@@H](CCC(=O)O)C(=O)O)cc3)cnc2n1`
12.1% (inactive)

Look up activity, negative = cell killing for this compound: `CCCCCCCC/C=C\CCCCCCCC(=O)O`
-14.1% (inactive)

Look up activity, negative = cell killing for this compound: O=C(O)C1CCCN1 (stereo unspecified)
-1.47% (inactive)

Look up activity, negative = cell killing for this compound: `O=S(=O)(O)c1ccc2c(N=Nc3ccc(S(=O)(=O)O)c4ccccc34)c(O)c(S(=O)(=O)O)cc2c1`
-24.2% (inactive)

Look up activity, negative = cell killing for this compound: `C=CCSSSCC=C`
-21.3% (inactive)

Look up activity, negative = cell killing for this compound: Cc1ccccc1OCC(O)CNCCOc1ccc(C(N)=O)cc1 (stereo unspecified)
-24% (inactive)

* * *

Tested On: N-terminal Xaa-Pro-Lys N-methyltransferase 1 (Homo sapiens) (UniProt Q9BV86)
Sequence (Q9BV86 whole entry, looked up): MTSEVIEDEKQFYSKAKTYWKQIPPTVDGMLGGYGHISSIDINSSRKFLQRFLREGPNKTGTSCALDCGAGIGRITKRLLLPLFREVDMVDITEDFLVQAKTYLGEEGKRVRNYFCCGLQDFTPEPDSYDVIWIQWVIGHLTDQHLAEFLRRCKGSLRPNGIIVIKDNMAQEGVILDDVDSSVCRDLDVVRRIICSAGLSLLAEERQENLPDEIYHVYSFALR
Measurement Description: Confirmatory qHTS for Inhibitors of N-terminal methyltransferase 1 (NTMT1): MTaseGlo Assay (AID 1645874); note: nearly all actives have a fitted effect of over 65% in size
Conditions Used: NTMT1 enzyme, MTase-Glo SAH luminescence; series mostly up to 100 µM
Inconclusive results are not listed. Calls of active or inactive are those of the source. Calls follow the shape of the dose curve; as a rule, active = well fitted inhibition curve with a large enough effect; inconclusive = small, poorly fitted or top-dose-only effect; inactive = no such curve, though single readings can be large or run the other way. Where a SMILES comes first, the peptide text is derived from it. Bridges are numbered along the chain shown (N, C = ends). [ ]: non-standard residue; d: D form. The star is where a group is joined. AFC = O=c1cc(C(F)(F)F)c2ccc(N*)cc2o1; X1 = CCC(C)C(N)C1=NC(C(=O)*)CS1; dOrn = NCCC[C@@H](N)C(=O)O
Your answer must be one of the following: 1.0 (active), 0.0 (inactive)

Please let me know the test result on file for CCC(C)C(N)C1=NC(C(=O)N[C@@H](CC(C)C)C(=O)N[C@H](CCC(=O)O)C(=O)N[C@H](C(=O)N[C@H]2CCCCNC(=O)[C@H](CC(N)=O)NC(=O)[C@@H](CC(=O)O)NC(=O)[C@H](Cc3cnc[nH]3)NC(=O)[C@@H](Cc3ccccc3)NC(=O)[C@H]([C@@H](C)CC)NC(=O)[C@@H](CCCN)NC2=O)[C@@H](C)CC)CS1 (stereo not given in full) (X1-L[dE]IK[dOrn]I[dF]H[dD]N; lactam 4-C) .
1.0

Please let me know the test result on file for CC(C)(O)c1ccc2c(c1)C(=O)CC1[C@](C)(CO)CCC[C@]21C (stereo not given in full) .
0.0

Please let me know the test result on file for COc1cc2c(Nc3ccc(Cl)c(Cl)c3F)ncnc2cc1OCC1C[C@@H]2CN(C)C[C@@H]2C1 (stereo not given in full) .
1.0

Please let me know the test result on file for `C=Cc1cc(O)cc2nc(-c3ccc(O)c(F)c3)oc12` .
1.0

Please let me know the test result on file for CC(=O)N[C@@H](CC(C)C)C(=O)N[C@@H](CCC(=O)O)C(=O)N[C@@H](CCC(=O)O)C(=O)N[C@@H](CC(=O)O)C(=O)Nc1ccc2c(C(F)(F)F)cc(=O)oc2c1 (Ac-LEED-{AFC}) .
0.0
